Tested on: E. coli (K-12 BW25113)
Assay type: cell-based, Escherichia coli
Set-up: unit not given here
Protocol: In the following experiments, bacterial cells were cultured in 96-well microtiter plates in cation-adjusted Mueller-Hinton Broth (MHB) for 18 h at 37° C. The main strains used in this study were E. coli (K-12 BW25113) (placed in stationary incubator) and S. aureus (Strain Newman) (incubated at 250 r.p.m). […]
Listed below: MIC, E. coli, MHB+ values for each entry.
reportedProperty: MIC, E. coli, MHB+

COc1c(N2C[C@@H]3CCCN[C@@H]3C2)c(F)cc2c(=O)c(C(=O)O)cn(C3CC3)c12 : 0.0156
O=CN(O)CCCP(=O)(O)O : 32
CO[C@@H]1[C@@H](OC(N)=O)[C@@H](O)[C@H](Oc2ccc3c(O)c(NC(=O)c4ccc(O)c(CC=C(C)C)c4)c(=O)oc3c2C)OC1(C)C : >256
CC1(C)S[C@@H]2[C@H](NC(=O)[C@H](N)c3ccccc3)C(=O)N2[C@H]1C(=O)O : 32

----------
tested on: E. coli (K-12 BW25113); type: cell-based, Escherichia coli; parameters: unit not given here
reportedProperty: MIC, E. coli, MHB+

CC[C@H]1OC(=O)[C@H](C)[C@@H](O[C@H]2C[C@@](C)(OC)[C@@H](O)[C@H](C)O2)[C@H](C)[C@@H](O[C@@H]2O[C@H](C)C[C@H](N(C)C)[C@H]2O)[C@](C)(O)C[C@@H](C)C(=O)[C@H](C)[C@@H](O)[C@]1(C)O [Erythromycin] : 32
CCn1cc(C(=O)O)c(=O)c2cc(F)c(N3CCNCC3)nc21 [Enoxacin] : 0.125
C[C@H]1c2cccc(O)c2C(=O)C2=C(O)[C@]3(O)C(=O)C(C(N)=O)=C(O)[C@@H](N(C)C)[C@@H]3[C@@H](O)[C@@H]21 [Doxycycline] : 4
CC(=O)NC[C@H]1CN(c2ccc(N3CCOCC3)c(F)c2)C(=O)O1 [Linezolid] : 256
NC[C@@H]1O[C@H](O[C@H]2[C@@H](O)[C@H](O[C@@H]3[C@@H](O)[C@H](N)C[C@H](N)[C@H]3O[C@H]3O[C@H](CO)[C@@H](O)[C@H](O)[C@H]3N)O[C@@H]2CO)[C@H](N)[C@@H](O)[C@@H]1O [Paromomycin] : 1

----------
This section presents compounds with their documented MIC, E. coli, MHB+ values.
Test system: E. coli (K-12 BW25113)
Format: cell-based, Escherichia coli
Parameters: unit not given here
Description: In the following experiments, bacterial cells were cultured in 96-well microtiter plates in cation-adjusted Mueller-Hinton Broth (MHB) for 18 h at 37° C. The main strains used in this study were E. coli (K-12 BW25113) (placed in stationary incubator) and S. aureus (Strain Newman) (incubated at 250 r.p.m). […]
reportedProperty: MIC, E. coli, MHB+

CO/N=C(\C(=O)N[C@@H]1C(=O)N2C(C(=O)O)=C(CSc3nc(=O)c(=O)[nH]n3C)CS[C@H]12)c1csc(N)n1 : 0.625
CN[C@@H]1[C@H](O)[C@H](NC)[C@H]2O[C@@]3(O)C(=O)C[C@@H](C)O[C@H]3O[C@@H]2[C@H]1O : 4
N[C@@H]1CCCCN(c2c(F)cc3c(=O)c(C(=O)O)cn(C4CC4)c3c2Cl)C1 : 0.0313
O=C(N[C@H](CO)[C@H](O)c1ccc([N+](=O)[O-])cc1)C(Cl)Cl : 8
CC1(C)S[C@@H]2[C@H](NC(=O)[C@H](N)c3ccc(O)cc3)C(=O)N2[C@H]1C(=O)O : 16
CCn1cc(C(=O)O)c(=O)c2cc(F)c(N3CCNCC3)cc21 : 0.0625

----------
test system: E. coli (K-12 BW25113); type: cell-based, Escherichia coli; design: unit not given here
reportedProperty: MIC, E. coli, MHB+

C[C@H]1COc2c(N3CCN(C)CC3)c(F)cc3c(=O)c(C(=O)O)cn1c23 : 0.0313
C[C@@H]1O[C@@H]1P(=O)(O)O : 16
CCn1cc(C(=O)O)c(=O)c2ccc(C)nc21 : 8
CCN1CCN(C(=O)N[C@@H](C(=O)N[C@@H]2C(=O)N3[C@@H]2SC(C)(C)[C@@H]3C(=O)O)c2ccccc2)C(=O)C1=O : 1
CO[C@H]1/C=C/O[C@@]2(C)Oc3c(C)c(O)c4c(O)c(c(/C=N/N5CCN(C)CC5)c(O)c4c3C2=O)NC(=O)/C(C)=C\C=C\[C@H](C)[C@H](O)[C@@H](C)[C@@H](O)[C@@H](C)[C@H](OC(C)=O)[C@@H]1C : 64
CN[C@@H]1[C@@H](O[C@H]2O[C@H](CO)[C@@H](N)[C@H](O)[C@H]2O)OC2C[C@@H](N)[C@@H](O[C@H]3[C@H](O)[C@@H](O)[C@H](N)C[C@@H]3N)OC2[C@@H]1O (some centres unmarked) : 8
Cc1onc(-c2ccccc2Cl)c1C(=O)N[C@@H]1C(=O)N2[C@@H]1SC(C)(C)[C@@H]2C(=O)O : 256
NC[C@H]1O[C@H](O[C@H]2[C@H](O)[C@@H](O[C@H]3O[C@H](CO)[C@@H](O)[C@H](N)[C@H]3O)[C@H](N)C[C@@H]2N)[C@H](O)[C@@H](O)[C@@H]1O : 1
CC[C@H]1OC(=O)[C@H](C)[C@@H](O[C@H]2C[C@@](C)(OC)[C@@H](O)[C@H](C)O2)[C@H](C)[C@@H](O[C@@H]2O[C@H](C)C[C@H](N(C)C)[C@H]2O)[C@](C)(O)C[C@@H](C)[C@@H]2N[C@@H](COCCOC)O[C@H]([C@H]2C)[C@]1(C)O : 4
CCN1CCN(C(=O)N[C@@H](C(=O)N[C@@H]2C(=O)N3C(C(=O)O)=C(CSc4nnnn4C)CS[C@H]23)c2ccc(O)cc2)C(=O)C1=O : 0.125
